- Assay Details: in vitro
- Measurement Parameters: Sprague-Dawley, rat, pH 7.4
Ends that are not written are not given here.
Assay Endpoint: Papp A→B (×10⁻⁶ cm/s)

1: VAARTGEIYVPW
2: WPVYIEGTRAAV
Exercise: Parameter check: reported Papp A→B is higher for which label, 1 or 2 ? Field: selected label. Fill in the label of the entry you choose.
Key: 1
